The origin of these recorded values is PubChem BioAssay (EPA / NIEHS).

Assay: BSK_3C_TissueFactor: BioMAP Diversity Plus: 3C Assay for Tissue Factor Biomarker Activity (AID 2282997)
Settings: BioMAP 3C HUVEC, tissue factor biomarker readout; actives raise or lower the signal
Calls of active or inactive are those of the source. The calls were made as follows: active = hit-call score of the fitted dose curve at least 0.9, where 1 is the maximum; inactive = score below 0.9.
Classes used: label 1 = active, label 0 = inactive

# Molecule, Category Label
data = [
    ("CCCCOC(=O)[C@@H](C)Oc1ccc(Oc2ccc(C#N)cc2F)cc1", "label 0"),
    ("CC(Oc1cccc(Cl)c1)C(=O)O (stereo unspecified)", "label 0"),
    ("CCc1cnc(C2=NC(C)(C(C)C)C(=O)N2)c(C(=O)O)c1 (stereo unspecified)", "label 0"),
    ("COc1ccc(C(=CC(=O)N2CCOCC2)c2ccc(Cl)cc2)cc1OC", "label 0"),
    ("COP(=O)(OC)SCn1c(=O)oc2cc(Cl)cnc21", "label 0"),
    ("CCCCN(CC)c1c([N+](=O)[O-])cc(C(F)(F)F)cc1[N+](=O)[O-]", "label 0"),
    ("CNc1cnn(-c2cccc(C(F)(F)F)c2)c(=O)c1Cl", "label 0"),
    ("CC(COc1ccc(Oc2ccccc2)cc1)Oc1ccccn1 (stereo unspecified)", "label 0"),
    ("CNC(=O)Oc1cccc2c1OC(C)(C)O2", "label 0"),
    ("CCCOCC(=Nc1ccc(Cl)cc1C(F)(F)F)n1ccnc1", "label 1"),
    ("CC(C1CC1)C(O)(Cn1cncn1)c1ccc(Cl)cc1 (stereo unspecified)", "label 0"),
    ("C[Si](Cn1cncn1)(c1ccc(F)cc1)c1ccc(F)cc1", "label 0"),
    ("CCOP(=S)(OCC)Oc1ccc2c(C)c(Cl)c(=O)oc2c1", "label 0"),
    ("CN(C)NC(=O)CCC(=O)O", "label 0"),
    ("CCOP(=S)(OCC)SCCSCC", "label 0"),
    ("CCC(CC)Nc1c([N+](=O)[O-])cc(C)c(C)c1[N+](=O)[O-]", "label 0"),
    ("COc1cccc(C(=O)NN(C(=O)c2cc(C)cc(C)c2)C(C)(C)C)c1C", "label 0"),
    ("CCc1cccc(CC)c1N(COC)C(=O)CCl", "label 0"),
    ("C=C(C)[C@H]1Cc2c(ccc3c2O[C@@H]2COc4cc(OC)c(OC)cc4[C@@H]2C3=O)O1", "label 1"),
    ("CC1=NNC(=O)N(/N=C/c2cccnc2)C1", "label 0"),
    ("CCOC(=O)CC(SP(=O)(OC)OC)C(=O)OCC (stereo unspecified)", "label 0"),
    ("COP(=O)(NC(C)=O)SC (stereo unspecified)", "label 0"),
    ("Nc1c(Cl)cc([N+](=O)[O-])cc1Cl", "label 0"),
    ("CC(C)N(C(=O)SCC(Cl)=C(Cl)Cl)C(C)C", "label 1"),
    ("N#CSCSC#N", "label 1"),
    ("CCCSP(=O)(OCC)SCCC", "label 0"),
    ("CCOP(=O)(SC(C)CC)N1CCSC1=O (stereo unspecified)", "label 0"),
    ("CCCCSP(=O)(SCCCC)SCCCC", "label 0"),
    ("Cc1nn(-c2cc(NS(C)(=O)=O)c(Cl)cc2Cl)c(=O)n1C(F)F", "label 0"),
    ("CCCCOC(=O)c1ccccc1C(=O)O", "label 0"),
    ("CSc1nnc(C(C)(C)C)c(=O)n1N", "label 0"),
    ("CCOP(=O)(NC(C)C)Oc1ccc(SC)c(C)c1 (stereo unspecified)", "label 0"),
    ("Cc1ccn2nc(S(=O)(=O)Nc3c(F)cccc3F)nc2n1", "label 0"),
    ("S=C1NCCN1", "label 0"),
    ("CCOP(=O)(OCC)Oc1cc(C)nc(C(C)C)n1", "label 0"),
    ("CSC1=N[C@@](C)(c2ccccc2)C(=O)N1Nc1ccccc1", "label 1"),
]
